molecular target: T1, AAV8 (adeno-associated virus serotype 8); assay: SPR, AAV on CM5 chip;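 further: surface plasmon resonance with AAV amine-coupled to the chip as ligand, nanobodies injected as analyte over a concentration series, rate constants and affinity fitted from binding curves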
T1 construct: also called adeno-associated virus serotype 8
assay metric: Kd (nM)
One number for each entry, in nM.

[
  {
    "binder": "A4-111 (VHH) VHH: VQLQESGGGLAQPGGSLRLSCAASGSNFSINTMGWYRQRAGKQREFVATITRGGSTNYGDSVKGRFTISRDNAKTTVYLQMNSLRPEDTAVYYCHLDEVRESTWTTSNLWGQGTQVTVSS",
    "Kd [nM]": 1.88
  },
  {
    "binder": "A4-113 (VHH) VHH: VQLQESGGGLVQTGGSLRLSCVASGSRFSINTVGWYRQAPGKQRELVATVTRGGSTWYAGSVKGRFTISRDNTKNTIYLQMNSLRPEDTAVYYCHVDEIRQSTWTTSNLWGQGTQVTVSS",
    "Kd [nM]": 3.25
  },
  {
    "binder": "A4-109 (VHH) VHH: VQLQESGGGLVQAGGSLRLSCAASGTIFSLNVMGWYRQAPGKQRELVASVTRGGNTNYADSVKGRFTISRDNAKTTVYLQMNSLRPEDTAVYYCHVDELRDSTWTTSNLWGQGTQVTVSS",
    "Kd [nM]": 2.27
  }
]

# context switch: different binder, same Kd
Name the recorded Kd for A4-104 (VHH) VHH: VQLQESGGGLVQPGGSLRLSCAASGSIFSLNSMGWYRQAPGKQRELVATITSGGSTNYAGSVKGRFTISRDNAKNTVYLQMNNLQPEDTAVYYCHVDEVRESSWTTSNLWGQGTQVTVSS . 10.5
